tested on: Salmonella typhimurium; test: Antibacterial activity against Salmonella typhimurium ATCC 14028 infected in 129X1/SvJ NRAMP +/+ mouse gallstone model assessed as log reduction in bacterial burden in gallblader at 5 mg/kg/day, ip administered for 5 to 15 consecutive days of post infection and measured on day 15 in presence of 1 mg/kg/day ciprofloxacin; assay type: functional, Salmonella enterica subsp. enterica serovar Typhimurium; details: time 10 day
QUANTITY NAME: log(activity)

{"SMILES STRING": "CN(Cc1ccsc1)CC1CCN(CCc2cccc(Cl)c2Cl)CC1", "TEST TARGET": "Salmonella typhimurium", "READOUT VALUE": 1.5}
{"SMILES STRING": "CN(Cc1ccsc1)CC1CCN(CCc2ccc(Br)c(Br)c2)CC1", "TEST TARGET": "Salmonella typhimurium", "READOUT VALUE": 4.5}
{"SMILES STRING": "CN(Cc1ccsc1)CC1CCN(CCc2ccccc2F)CC1", "TEST TARGET": "Salmonella typhimurium", "READOUT VALUE": 2}

Query: // query log(activity) value for entry `CN(Cc1ccsc1)CC1CCN(CCc2ccc(-c3ccccc3)cc2)CC1`
Result: 3.5
